Tested on: p38-beta;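 also: KINOMEscan kinase panel screen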
Construct: gene MAPK11
Details: concentration: 1 μM, replicates: in singlicate; n = 1
Recorded %Inh values for a group of molecules are listed next.
Express it in %; write the number only.

{"columns": ["Molecule", "%Inh (%)"],
 "data": [
  ["COc1cc(Nc2nccc(N3CCC(NC(=O)Nc4cc(C)ccc4C)C3)n2)cc(OC)c1OC (stereo not drawn)", 0],
  ["Cc1cccc(-c2nc(Nc3ccncc3)c3ccccc3n2)n1", 1],
  ["Cl.NC(=O)c1cccc(Nc2nccc(Nc3ccc(Oc4cccc(Cl)c4)c(Cl)c3)n2)c1", 0],
  ["Cn1ccc2ncnc(Oc3cccc(C(=O)Nc4ccccc4)c3)c21", 6],
  ["COc1cccc(NC(=O)NC2CCN(c3ccnc(Nc4ccc(F)cc4)n3)C2)c1 (stereo not drawn)", 0]
]}

Data request, read-out %Inh, for Cl.Oc1ccc(-c2nc(-c3ccccc3)[nH]c2-c2ccncc2)cc1
0

Data request, read-out %Inh, for Cc1cccc(-c2nc(-c3ccc(S(C)(=O)=O)cc3)sc2-c2ccnc(NCCc3ccccc3)c2)c1
40

Data request, read-out %Inh, for Cc1cccc(-c2cc(Nc3ccncc3)c3ccccc3n2)n1
0

Data request, read-out %Inh, for Cc1ccc(NC(=O)Nc2cc(C(C)(C)C)nn2-c2ccccc2)cc1
87

Data request, read-out %Inh, for O=C(Nc1n[nH]c2nc(-c3nccs3)c(Br)cc12)C1CC1
0

Data request, read-out %Inh, for COc1ccc(Nc2nccc(NCCNC(=O)Nc3ccccc3F)n2)cc1
0

Data request, read-out %Inh, for COc1ccc(Nc2nccc(-c3cccc(NC(=O)c4cc5cc(F)ccc5[nH]4)c3)n2)cc1
0

Data request, read-out %Inh, for Cc1c(Cn2ccn3c(=O)cc(N4CCOCC4)nc23)cccc1C(F)(F)F
0

The values you see were collected from paper PMC5540273.
